Assay type: physicochemical
Structures can show the parent of a compound that is named as a salt.
assayMetric: Partition coefficient
# output: bare number, no unit

[[record]]
molecule = "CC(=O)Oc1ccccc1C(=O)O [Aspirin]"
assayvalue = 0.61

[[record]]
molecule = "O=C(O)Cc1ccccc1Nc1c(Cl)cccc1Cl [Diclofenac•Na]"
assayvalue = 0.103

[[record]]
molecule = "CC(C)Cc1ccc(C(C)C(=O)O)cc1 (stereo not shown) [Ibuprofen]"
assayvalue = 0


Consider the molecule CCCCN1CCCCC1C(=O)Nc1c(C)cccc1C (stereo not shown) [Bupivacaine•HCl] . State its measured Partition coefficient.
0.37
